# assayedTarget: KRAS G12C Ba/F3 (Homo sapiens, UniProt P01116, G12C, cells depend on it)
# Sequence (P01116 whole entry G12C): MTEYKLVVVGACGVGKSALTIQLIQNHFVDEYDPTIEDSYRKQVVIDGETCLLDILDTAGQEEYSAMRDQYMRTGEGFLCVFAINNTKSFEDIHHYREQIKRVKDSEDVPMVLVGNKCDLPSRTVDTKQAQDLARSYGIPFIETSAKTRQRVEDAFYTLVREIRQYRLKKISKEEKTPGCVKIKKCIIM
# assayRemarks: Ba/F3 proliferation assay, KRAS G12C
# Type: cell-based
# conditionDescription: 72 h, AlamarBlue, read-out: KRAS G12C Ba/F3 IC50
# Protocol: Plasmids containing KRASG12 mutants(i.e. G12D, G12C, G12V) are obtained from GeneScript. To generate KRASG12-dependent Ba/F3 models, Ba/F3 cells are transduced with retroviruses containing vectors that harbor KRASG12 isoforms. […] Compounds are added using an Access Labcyte Workstation with a Labcyte Echo 550 or 555 accoustic dispenser. […] AlamarBlue™ (ThermoFisher), a viability stain, is added and fluorescence measured in the PerkinElmer Envision HTS Multilabel Reader. […]
attributeMeasured: GI50 (µM)
Field: numeric (µM). Do not append units.

Here are 2 compounds together with their reported answers.
Q. API: value(readout= GI50, system= KRAS G12C Ba/F3 (Homo sapiens, UniProt P01116, G12C, cells depend on it), query= C[C@H](Oc1cc(OCCO)nc(-c2noc3c2CCC[C@@]32CCCc3sc(N)c(C#N)c32)n1)[C@@H]1CCCN1C [II-6] )
A. 0.011

Q. Give GI50 (KRAS G12C Ba/F3 (Homo sapiens, UniProt P01116, G12C, cells depend on it)) of the following compound: C[C@H](Oc1cc(Sc2ncccn2)nc(-c2onc3c2CCC[C@@]32CCCc3sc(N)c(C#N)c32)n1)[C@@H]1CCCN1C [Example I-7]
A. 0.075

Turning now to a further record.
Q. Short answer please: GI50, KRAS G12C Ba/F3 (Homo sapiens, UniProt P01116, G12C, cells depend on it), entry C[C@H](Oc1cc(O[C@H]2CNC(C)(C)C2)nc(-c2noc3c2CCC[C@@]32CCCc3sc(N)c(C#N)c32)n1)[C@@H]1CCCN1C (single isomer, unassigned) [II-8]
A. 0.592
